- system-under-test: Receptor tyrosine-protein kinase erbB-2 (Homo sapiens, UniProt P04626)
- Sequence (P04626 whole entry): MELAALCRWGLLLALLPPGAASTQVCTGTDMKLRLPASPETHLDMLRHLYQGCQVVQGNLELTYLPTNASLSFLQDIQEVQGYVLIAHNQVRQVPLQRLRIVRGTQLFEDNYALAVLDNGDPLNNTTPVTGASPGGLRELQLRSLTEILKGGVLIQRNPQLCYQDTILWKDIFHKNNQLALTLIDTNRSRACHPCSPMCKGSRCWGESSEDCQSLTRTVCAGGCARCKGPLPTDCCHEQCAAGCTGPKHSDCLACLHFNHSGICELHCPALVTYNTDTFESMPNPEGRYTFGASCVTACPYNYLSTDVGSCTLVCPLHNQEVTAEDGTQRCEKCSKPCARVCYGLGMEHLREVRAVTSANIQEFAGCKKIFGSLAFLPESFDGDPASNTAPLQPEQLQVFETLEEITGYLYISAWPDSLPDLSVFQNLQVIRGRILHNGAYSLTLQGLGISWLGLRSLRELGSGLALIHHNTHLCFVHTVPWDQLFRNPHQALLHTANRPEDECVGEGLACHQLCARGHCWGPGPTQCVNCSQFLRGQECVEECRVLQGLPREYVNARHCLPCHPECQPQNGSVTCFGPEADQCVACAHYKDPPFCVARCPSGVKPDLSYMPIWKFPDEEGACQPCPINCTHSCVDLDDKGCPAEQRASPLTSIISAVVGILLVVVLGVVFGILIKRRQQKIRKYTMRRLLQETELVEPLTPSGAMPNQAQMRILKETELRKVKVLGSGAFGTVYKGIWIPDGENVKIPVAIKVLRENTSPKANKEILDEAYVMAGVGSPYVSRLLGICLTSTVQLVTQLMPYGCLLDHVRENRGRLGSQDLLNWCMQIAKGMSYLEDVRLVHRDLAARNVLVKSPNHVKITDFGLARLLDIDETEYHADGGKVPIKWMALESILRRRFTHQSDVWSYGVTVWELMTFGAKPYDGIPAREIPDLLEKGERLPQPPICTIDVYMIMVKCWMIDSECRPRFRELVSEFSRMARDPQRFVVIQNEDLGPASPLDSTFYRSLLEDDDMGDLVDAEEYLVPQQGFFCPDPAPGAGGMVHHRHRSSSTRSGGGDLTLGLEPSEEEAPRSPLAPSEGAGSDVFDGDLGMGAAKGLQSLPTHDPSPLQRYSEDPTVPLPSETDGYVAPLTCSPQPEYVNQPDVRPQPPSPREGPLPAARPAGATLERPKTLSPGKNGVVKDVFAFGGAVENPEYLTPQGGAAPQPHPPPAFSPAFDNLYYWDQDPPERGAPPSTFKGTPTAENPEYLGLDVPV
- protocol-description: Inhibition of HER2 overexpressed in mouse 3T3 cells by ELISA
Quick reference: IC50 of the listed items.
// return numeric value only (unit: µM, not printed)

CC(C)=CCC/C(C)=C/CC/C(C)=C/CC/C(C)=C/CC/C(C)=C/CC/C(C)=C/Cc1cc(OS(=O)(=O)O)ccc1O    6.44
CC(C)=CCC/C(C)=C/CC/C(C)=C/CC/C(C)=C/CC/C(C)=C/CC/C(C)=C/CC/C(C)=C/Cc1cc(OS(=O)(=O)O)ccc1O    11.6
CC(C)=CCC/C(C)=C/CC/C(C)=C/CC/C(C)=C/CC/C(C)=C/CC/C(C)=C/CC/C(=C/Cc1cc(O)ccc1O)CO    9.79

Now for the compound whose IC50 we want.
Q: Identify IC50 associated with the compound "CC(C)=CCC/C(C)=C/CC/C(C)=C/CC/C(C)=C/CC/C(C)=C/Cc1cc(OS(=O)(=O)O)ccc1O"
Result: 14.5
